Some binders, each annotated with its measured Kd.
Target: T1, Cyno His-GDF15: HIS-tagged cyno GDF15 (cynomolgus, UniProt G7PWZ3 197-308, limits assumed)
T1 construct: not shown: His tag
T1 sequence (looked up): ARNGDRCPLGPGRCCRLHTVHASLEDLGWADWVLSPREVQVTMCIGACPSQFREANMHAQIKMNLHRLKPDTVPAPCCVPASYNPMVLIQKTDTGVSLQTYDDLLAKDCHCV
Experiment: Biacore SPR, IgG captured via anti-human Fc, GDF15 in flow
Provide only the numeric value, understood in nM.

stdin: So what's the measured Kd for this one? ABGDF15-G (antibody, human IgG1, kappa, V domains shown, captured through anti-human Fc in the Biacore assay) VH: QVQLVQSGAEVKKPGSSVKVSCKASGGTFSSHYINWVRQAPGQGLEWMGGIIPAFGGANYAQKFQGRVTITADESTSTAYMELSSLRSEDTAVYYCARFGSVYVSRYSSYYHMDVWGQGTLVTVSS VL: DIQMTQSPSSLSASVGDRVTITCRASQTIYRSLAWYQQKPGKAPKLLIYGASILQSGVPSRFSGSGSGTDFTLTISSLQPEDFATYYCLQRYTSPFTFGQGTKVEIKR
stdout: 0.12

# next binder below
stdin: So what's the measured Kd for this one? ABGDF15-B (antibody, human IgG1, lambda, V domains shown, captured through anti-human Fc in the Biacore assay) VH: QVQLVQSGAEVKKPGSSVKVSCKASGGTFRSYAVSWVRQAPGQGLEWMGGIIPIFGTANYAQKFQGRVTITADESTSTAYMELSSLRSEDTAVYYCARGPIIMGYQFGLFDHWGQGTLVTVSS VL: SYELTQPLSVSVALGQTARITCSGDNIGSHIVSWYQQKPGQAPVLVIYDKSNRPSGIPERFSGSNSGNTATLTISRAQAGDEADYYCQTWDSIGSVVFGGGTKLTVLG
stdout: 0.0836

All figures here come from patent US20190135908A1.
